Origin of the recorded values: patent EP3057949B1

# target-or-test-system: human RORγt LBD (Homo sapiens, UniProt P51449)
# Construct: expressed in transfected cells; host or cells: HEK293T
# Sequence (P51449 258-518): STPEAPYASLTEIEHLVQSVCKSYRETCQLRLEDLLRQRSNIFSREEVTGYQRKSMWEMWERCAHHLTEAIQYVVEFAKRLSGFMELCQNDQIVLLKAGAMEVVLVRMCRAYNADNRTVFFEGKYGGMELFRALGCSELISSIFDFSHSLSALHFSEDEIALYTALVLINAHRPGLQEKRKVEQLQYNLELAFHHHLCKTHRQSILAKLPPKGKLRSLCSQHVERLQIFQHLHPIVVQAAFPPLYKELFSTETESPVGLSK
# procedure-text: RORγt (LBD) Reporter Assay (GAL4 luciferase, HEK293T cells)
# Format: cell-based
# protocol-conditions: compounds for 24 hours
metric: IC50 (nM)

P: COc1nc2ccc(C(O)c3cnnn3C)cc2c(Cl)c1Cc1ccc(C(F)(F)F)cc1 (single isomer, unassigned) [Example 17c]
Q: Cc1ncc(C(O)c2ccc3nc(N4CCC4)c(Cc4ccc(-n5cccn5)cc4)c(Cl)c3c2)n1C (single isomer, unassigned) [Example 21c]
Problem: Given the entries P and Q , determine which has the lower reported IC50. Your choice should be expressed through its label.
P

* * *

# target-or-test-system: human RORγt LBD (Homo sapiens)
# Construct: expressed in transfected cells; host or cells: HEK293T
# procedure-text: RORγt (LBD) Reporter Assay (GAL4 luciferase, HEK293T cells)
# Assay type: cell-based
# protocol-conditions: compounds for 24 hours
metric: IC50 (nM)

Solved entries:
>>> df
                                   molecule  result_unit  reported_value
0  Cc1ccc(C(O)c2ccc3nc(N4CCC4)c(Cc4ccc(C(F)(F)F)cc4)c(Cl)c3c2)c(C)n1 (single isomer, unassigned) [Example 23b]           nM             220
1  Cc1ccc(C(O)c2ccc3nc(N4CCC4)c(Cc4ccc(C(F)(F)F)cc4)c(Cl)c3c2)c(C)n1 (stereo not drawn) [Example 23a]           nM             180
2  COc1nc2ccc(C(O)c3ccc(C)nc3C)cc2c(Cl)c1Cc1ccc(C(F)(F)F)cc1 (single isomer, unassigned) [Example 14b]           nM             120

1: COc1nc2ccc(C(O)C3CN(C(=O)OC(C)(C)C)C3)cc2c(Cl)c1Cc1ccc(C(F)(F)F)cc1 (stereo not drawn)
2: Cc1ncc(C(O)c2ccc3nc(N4CCC4)c(Cc4ccc(-n5cccn5)cc4)c(Cl)c3c2)n1C (single isomer, unassigned) [Example 21b]
Larger number for IC50: 1 , or 2 ? Respond with the label that goes with your answer.
1

* * *

# target-or-test-system: human RORγt LBD (Homo sapiens)
# Construct: expressed in transfected cells; host or cells: HEK293T
# procedure-text: RORγt (LBD) Reporter Assay (GAL4 luciferase, HEK293T cells)
# Type: cell-based
# protocol-conditions: 6 µM compound, 6 µM
metric: RORγt (LBD) Reporter Assay, % inhibition @ 6 µM (%)

>>> print(df.to_string())
                                   molecule  result_unit  reported_value
0  COc1nc2ccc(C(O)c3cncn3C)cc2c(Cl)c1Cc1ccc(C(F)(F)F)cc1 (single isomer, unassigned) [Example 18c]            %              96
1  Cc1ncc(C(O)c2ccc3nc(N4CCC4)c(Cc4ccc(-n5cccn5)cc4)c(Cl)c3c2)n1C (single isomer, unassigned) [Example 21c]            %              92
2  Cc1ccc(C(O)c2ccc3nc(N4CCC4)c(Cc4ccc(C(F)(F)F)cc4)c(Cl)c3c2)c(C)n1 (single isomer, unassigned) [Example 23c]            %              99
3  COc1nc2ccc(C(O)c3ccc(C)nc3C)cc2c(Cl)c1Cc1ccc(C(F)(F)F)cc1 (single isomer, unassigned) [Example 14c]            %              98
4  COc1nc2ccc(C(O)c3cnnn3C)cc2c(Cl)c1Cc1ccc(C(F)(F)F)cc1 (single isomer, unassigned) [Example 17c]            %              97

I: COc1nc2ccc(C(O)c3cnc(C)n3C)cc2c(Cl)c1Cc1ccc(C(F)(F)F)cc1 (single isomer, unassigned) [Example 15c]
II: COc1nc2ccc(C(O)c3cnc(C)n3C)cc2c(Cl)c1Cc1ccc(F)cc1 (single isomer, unassigned) [Example 8c]
Hello, I am sorting some records. Could you say if I or II has the smaller RORγt (LBD) Reporter Assay, % inhibition @ 6 µM value? In your reply, give the label of the chosen option.
II
(II: 37%, I: 101%)

* * *

# target-or-test-system: UniProt:P51449
# procedure-text: RORγt (LBD) Reporter Assay (GAL4 luciferase, HEK293T cells)
# protocol-conditions: compounds for 24 hours
pIC50: −log10 of the molar value.
metric: pIC50

I: COc1nc2ccc(C(O)c3cncn3C)cc2c(Cl)c1Cc1ccc(C(F)(F)F)cc1 (stereo not shown) [Example 18a]
II: COc1nc2ccc(C(O)c3ccc(C)nc3C)cc2c(Cl)c1Cc1ccc(C(F)(F)F)cc1 (single isomer, unassigned) [Example 14c]
Response body: label of entry with the larger pIC50; valid values I , II . Identify your selection by its label.
II

* * *

# target-or-test-system: human RORγt ligand binding domain (RORγt LBD) (Homo sapiens)
# Construct: His-tag (N); TurboTEV protease cleavage site (ENLYFQG) (N)
# Sequence (P51449 258-518): as above
# procedure-text: ThermoFluor® Assay (RORγt thermal shift binding)
# protocol-conditions: 0.065 mg/mL RORγt, 60 µM 1,8-ANS, pH 7.0; estimated from concentration response curves
# Method: This approach is applicable to a wide variety of systems, and rigorous in theoretical interpretation through quantitation of equilibrium binding constants (KD). […] Bar-coded assay plates are robotically loaded onto a thermostatically controlled PCR-type thermal block and then heated at a typical ramp-rate of 1 °C/minute for all experiments. […] Images were collected at each temperature, and the sum of the pixel intensity in a given area of the assay plate was recorded versus temperature. […]
metric: Kd (nM)

Solved entries:
>>> df
                                   compound                     target_or_test_system  result_unit  reported_value
0  Cc1ncc(C(O)c2ccc3nc(N4CCC4)c(Cc4ccc(C(F)(F)F)cc4)c(Cl)c3c2)n1C (single isomer, unassigned) [Example 22c]  human RORγt ligand binding domain (RORγt LBD) (Homo sapiens)           nM              43
1  Cc1ccc(C(O)c2ccc3nc(N4CCC4)c(Cc4ccc(C(F)(F)F)cc4)c(Cl)c3c2)c(C)n1 (single isomer, unassigned) [Example 23b]  human RORγt ligand binding domain (RORγt LBD) (Homo sapiens)           nM             110
2  COc1nc2ccc(C(O)c3c(C)nn(C)c3C)cc2c(Cl)c1Cc1ccc(C(F)(F)F)cc1 (stereo not drawn) [Example 34a]  human RORγt ligand binding domain (RORγt LBD) (Homo sapiens)           nM              11
3  COc1nc2ccc(C(O)c3cnnn3C)cc2c(Cl)c1Cc1ccc(C(F)(F)F)cc1 (single isomer, unassigned) [Example 17c]  human RORγt ligand binding domain (RORγt LBD) (Homo sapiens)           nM             130
4  COc1nc2c(C)cc(C(O)c3cncn3C)cc2c(Cl)c1Cc1ccc(-n2cccn2)cc1 (stereo not drawn) [Example 12]  human RORγt ligand binding domain (RORγt LBD) (Homo sapiens)           nM             600

I: OC(c1ccc(Cl)cc1)c1ccc2nc(Cl)c(-c3ccccc3Cl)c(Cl)c2c1 (stereo not drawn) [Example 26]
II: COc1nc2ccc(C(O)c3ccc(C#N)cc3)cc2c(Cl)c1Cc1ccc(C#N)cc1 (stereo not drawn) [Example 9]
Among I and II , which shows a numerically higher Kd result? The response must carry the label of the picked entry.
I
(I: 1400 nM, II: 680 nM)

I: OC(c1ccc(Cl)cc1)c1ccc2nc(Cl)c(-c3ccccc3)c(Cl)c2c1 (stereo not drawn) [Example 35]
II: Cc1ncc(C(O)c2ccc3nc(N4CCC4)c(Cc4ccc(C(F)(F)F)cc4)c(Cl)c3c2)n1C (stereo not drawn) [Example 22a]
III: COc1nc2ccc(C(O)c3c(C)noc3C)cc2c(Cl)c1Cc1ccc(C(F)(F)F)cc1 (single isomer, unassigned) [Example 20b]
Ranking field: Kd; order: falling. Answer format: list of labels, ordered as asked.
I, III, II

I: COc1nc2ccc(C(O)c3ccc(C)nc3C)cc2c(Cl)c1Cc1ccc(C(F)(F)F)cc1 (stereo not drawn) [Example 14a]
II: Cn1cncc1C(O)c1ccc2nc(Cl)c(Cc3ccc(-n4cccn4)cc3)c(Cl)c2c1 (stereo not drawn) [Example 7]
III: COc1nc2ccc(C(O)c3ccc(C)nc3C)cc2cc1Cc1ccc(C(F)(F)F)cc1 (stereo not drawn) [Example 16]
Put the compounds in ascending order of Kd. Give your ranking as a list of the labels in the requested order.
I, II, III

* * *

# target-or-test-system: human RORγt ligand binding domain (RORγt LBD) (Homo sapiens)
# Construct: His-tag (N); TurboTEV protease cleavage site (ENLYFQG) (N)
# procedure-text: ThermoFluor® Assay (RORγt thermal shift binding)
# protocol-conditions: 0.065 mg/mL RORγt, 60 µM 1,8-ANS, pH 7.0; estimated from concentration response curves
pKd: −log10 of the molar value.
metric: pKd

Reference set (4 entries):
In [3]: df
Out[3]:
                                   compound  reported_value
0  Cc1ncc(C(O)c2ccc3nc(Cl)c(-c4ccccc4)c(Cl)c3c2)n1C (stereo not shown) [Example 13]            5.92
1  OC(c1ccncc1)c1ccc2nc(Cl)c(-c3ccccc3)c(Cl)c2c1 (stereo not shown) [Example 25]            5.92
2  COc1nc2ccc(C(O)c3cncn3C)cc2c(Cl)c1Cc1ccc(C(F)(F)F)cc1 (single isomer, unassigned) [Example 18b]            6.54
3  Cc1ncc(C(O)c2ccc3nc(N4CCC4)c(Cc4ccc(-n5cccn5)cc4)c(Cl)c3c2)n1C (single isomer, unassigned) [Example 21b]            6.59

I: COc1nc2c(C)cc(C(O)c3cncn3C)cc2c(Cl)c1Cc1cccc(C(F)(F)F)c1 (stereo not shown) [Example 11]
II: COc1nc2c(C)cc(C(O)c3cncn3C)cc2c(Cl)c1Cc1ccc(S(C)(=O)=O)cc1 (stereo not shown) [Example 10]
// which entry has the larger pKd value, I or II ? // respond with label for picked entry
I
(I: 6.82, II: 5.52)
